# assay.remarks: soluble on expression in E. coli; label from the status in PepcDB or PDB records
measurement.name: soluble on expression in E. coli

INSERT INTO results (sequence_code, result) VALUES
  ('MSLKITILAVGKLKEKYWKQAIAEYEKRLGPYTKIDIIEVPDEKAPENMSDKEIEQVKEKEGQRILAKIKPQSTVITLEIQGKMLSSEGLAQELNQRMTQGQSDFVFVIGGSNGLHKDVLQRSNYALSFSKMTFPHQMMRVVLIEQVYRAFKIMRGEAYHK', 'soluble'),
  ('MSQPRTVTVLGATGSIGHSTLDLIERNLDRYQVIALTANRNVKDLADAAKRTNAKRAVIADPSLYNDLKEALAGSSVEAAAGADALVEAAMMGADWTMAAIIGCAGLKATLAAIRKGKTVALANKESLVSAGGLMIDAVREHGTTLLPVDSEHNAIFQCFPHHNRDYVRRIIITASGGPFRTTSLAEMATVTPERAVQHPNWSMGAKISIDSATMMNKGLELIEAFHLFQIPLEKFEILVHPQSVIHSMVEYLDGSILAQIGSPDMRTPIGHTLAWPKRMETPAESLDFTKLRQMDFEAPDYERFPALTLAMESIKSGGARPAVMNAANEIAVAAFLDKKIGFLDIAKIVEKTLDHYTPATPSSLEDVFAIDNEARIQAAALMESLPA', 'soluble');

* * *

# assay.remarks: soluble on expression in E. coli; label from the status in PepcDB or PDB records
measurement.name: soluble on expression in E. coli

INSERT INTO measurements (sequence_code, result) VALUES
  ('MVLLSFDIEEFDVPLEQGYKDFPSEEQLRISRQGTEAILHILRKKGVRSTFFSTVTFWESLPEDLRKGIYTDGHELASHGVFHSSFSKEHLAESRQKLASLWDGTDVCGFRMPRMMPVGDAEIAEAGYLYNSSLNPTCIPGRYNHLSAPRLPYFDKYGVLQMPSSVTPLLRFPLFWLSLHHLPLRLYIRMIRHTVRRDNYLNLYFHPWEFAEISCLPDCKLSYTVTHNSGEKMCRRLEAVIDTLLADGCSFGTFSDYYRFQKQG', 'not soluble'),
  ('MVTKTITEQRAEVRIFAGNDPAHTATGSSGISSPTPALTPLMLDEATGKLVVWDGQKAGSAVGILVLPLEGTETALTYYKSGTFATEAIHWPESVDEHKKANAFAGSALSHAALP', 'soluble'),
  ('SFAAIASGNPLQLSVEVPNSNGLQHTIVLSRTKPKLYSHITLFILPNVTFPQDYIATVYFKLSPQEEFKLFGYLSSEKPSAIFKVQIPSSKKDAGDTSDGLGEIDMDVDDGSGAADPFTDTNGSSSNNISELIIGISIEPREQGMMKLEEWKASMNAEAQKNNSLILSRPNLGIIRNITTAGQLAQVYPSLTQELAAKIVQHAYNYLSGFLDAQGNVPIKRFDTWWDKFRNRLANDGTFLDEVTKN', 'soluble'),
  ('MSLKPGTLISMMTEEEANSITHLTLTGKLNAEDFRHLRDEFPSLKVLDISNAEIKMYSGKAGTYPNGKFYIYMANFVPAYAFSNVVNGVTKGKQTLEKVILSEKIKNIEDAAFKGCDNLKICQIRKKTAPNLLPEALADSVTAIFIPLGSSDAYRFKNRWEHFAFIEGEPLETTIQVGAMGKLEDEIMKAGLQPRDINFLTIEGKLDNADFKLIRDYMPNLVSLDISKTNATTIPDFTFAQKKYLLKIKLPHNLKTIGQRVFSNCGRLAGTLELPASVTAIEFGAFMGCDNLRYVLATGDKITTLGDELFGNGVPSKLIYKEGHHHHHH', 'not soluble'),
  ('MSLGQDGFRLADYIREHVENGDKLVIRVSYHNTSLGFANPMREGVEKAKRELGVDAELIGPANGSAQEQVSELQTLISQQKVDGLAVSSASNDALKPVIAQAYNAGIPIISFNTNNPGSKQMAFVGQDLVQSGRFEAEQLRKELGDRKGKVVVFSVDTGAGWSNDRFSGFEAGMEGAEGIQIEGPINSGNEPRQAFNAVQNTMTANPDAIAIASLDCCSVDAAAKWVQQNGKKGEIIVVGFDVLPQTADFIRNGVIQFTISQNPVEQGYQSVKILNDFLKKNKPLRDVNTGTKLVDKSNIDEVPLEEGHHHHHH', 'soluble');

Next, consider the following sequence.
The sequence listed as MASMNDFIGRWKLVQTENFDEYMKEIGVGLITRKAAAHLKPILEIRLDGETWNFDQFSTFKNTKLSFKLGEEFVENSPDDRTYNSLFTFENGKLTHRQNKIKENHKSSVLTTWLENGKLIQTYQSGDVICRREWERE shows soluble on expression in E. coli equal to not soluble

* * *

# assay.remarks: soluble on expression in E. coli; label from the status in PepcDB or PDB records
measurement.name: soluble on expression in E. coli

INSERT INTO measurements (sequence_code, measurement_name, result) VALUES
  ('SGGLLIASAHFGAYVCGTDIDYNTVHGLGKASRKNQKWRGPDENIRANLRQYGLEKFYLDVLVSDASKPSWRKGTYFDAIITDPPYGIRESTRRSGSQKDIPKGIEKCPESHVPVSLSYHLSDMFFDLLNFAAETLVLGGRLVYWLPVYTPEYTEEMVPWHPCLRLISNCEQKLSSHTARRLITMEKVKEFENRDKYSHLLSDHFLPYQGHNSFREKYFSGVTKRIAKEEKCSHE', 'soluble on expression in E. coli', 'not soluble'),
  ('MGSDKIHHHHHHMNNIIVGMGEALWDVLPEGKKIGGAPANFAYHVSQFGFDSRVVSAVGNDELGDEIMEVFKEKQLKNQIERVDYPTGTVQVTLDDEGVPCYEIKEGVAWDNIPFTDELKRLALNTRAVCFGSLAQRNEVSRATINRFLDTMPDIDGQLKIFDINLRQDFYTKEVLRESFKRCNILKINDEELVTISRMFGYPGIDLQDKCWILLAKYNLKMLILTCGINGSYVFTPGVVSFQETPKVPVADTVGAGDSFTAAFCASILNGKSVPEAHKLAVEVSAYVCTQSGAMPELPVILKDRLL', 'soluble on expression in E. coli', 'not soluble');

* * *

# assay.remarks: soluble on expression in E. coli; label from the status in PepcDB or PDB records
measurement.name: soluble on expression in E. coli

Consider the following illustrative entries.
INSERT INTO results (sequence_code, result) VALUES
  ('MAYNKEEKIKSLNRMQYEVTQNNGTEPPFQNEYWDHKEEGLYVDIVSGKPLFTSKDKFDSQCGWPSFTKPIEEEVEEKLDTSHGMIRTEVRSRTADSHLGHVFNDGPGPNGLRYCINSAALRFVPKHKLKEEGYESYLHLFNK', 'not soluble'),
  ('MCMQAQDVTIRDQEIKLGQFIKLANLVETGGAAKEVIAEGRVTVNGAVDTRRGKTLRDGDVVCIGTACARVVAGAADDDDYFDEKTANDDFDPEVWRNM', 'not soluble'),
  ('MDELLNRLRQTWHSTIPVSEFMQIAPLSFTDGELSVSAPLAPNINLHHTMFAGSIYTIMTLTGWGMVWLQQQLLNVDGDIVLADAHIRYLAPVTSAPEVKVRWPDTNLSPLQRGRKAKVKLEVQLFCDGKLCAQFDGLYVSVPKMLEHHHHHH', 'soluble'),
  ('MPNFFKFHTVIERHWQKPYPVLSFLLKPLSGLFAKIAAKWRADFLSGKRQSEKLSVPVVVVGNIHAGGTGKTPIAAALVSGLQEKGVKVGIISRGYGRKSKAVYVLNAASRAEDAGDEPLLLFRKTGAPTAVGSSRVEAGRALLAAHPELELIVADDGLQHYALQRDVEIAVFPAADTGRTDLDLLPNGNLREPLSRLESVDAVVVGGRAADGFMPSEHLFGSRIEAGAVYRLNRPSEKLDISTLSGKRVAAVAGIARPQRFFDTLTHMGIRLDQTVALPDHADIFNRDLPPADVVLVTEKDAVKFSDGICTDNVWVLPVCAIIEPDLAEFVLERLEGVPKAVLEHHHHHH', 'not soluble'),
  ('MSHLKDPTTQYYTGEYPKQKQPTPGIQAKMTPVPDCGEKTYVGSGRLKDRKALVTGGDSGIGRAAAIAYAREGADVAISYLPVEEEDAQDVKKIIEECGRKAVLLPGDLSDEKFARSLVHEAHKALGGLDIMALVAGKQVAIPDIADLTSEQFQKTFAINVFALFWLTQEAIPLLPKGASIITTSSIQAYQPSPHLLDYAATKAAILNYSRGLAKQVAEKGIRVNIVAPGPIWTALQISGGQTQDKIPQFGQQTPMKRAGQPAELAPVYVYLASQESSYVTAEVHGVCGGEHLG', 'soluble');

// sample MSLNAPKLVIGANGFLGSHVTRQLVADCAPQKGEVRAMVRPAANTRSIDDLPLTRFHGDVFDTATVAEAMAGCDDVYYCVVDTRAWLRDPSPLFRTNVAGLRNVLDVATDASLRRFVFTSSYATVGRRRGHVATEEDRVDTRKVTPYVRSRVAAEDLVLQYAHDAGLPAVAMCVSTTYGGGDWGRTPHGAFIAGAVFGRLPFTMRGIRLEAVGVDDAARALILAAERGRNGERYLISERMMPLQEVVRIAADEAGVPPPRWSISVPVLYALGALGSLRARLTGKDTELSLASVRMMRSEADVDHGKAVRELGWQPRPVEESIREAARFWAAMRTVGKDPAASEGHHHHHH , its soluble on expression in E. coli was not soluble
